TESTED TARGET: T1, senescence-suppressed protein phosphatase SSPP (His-SSPP)
T1 chain: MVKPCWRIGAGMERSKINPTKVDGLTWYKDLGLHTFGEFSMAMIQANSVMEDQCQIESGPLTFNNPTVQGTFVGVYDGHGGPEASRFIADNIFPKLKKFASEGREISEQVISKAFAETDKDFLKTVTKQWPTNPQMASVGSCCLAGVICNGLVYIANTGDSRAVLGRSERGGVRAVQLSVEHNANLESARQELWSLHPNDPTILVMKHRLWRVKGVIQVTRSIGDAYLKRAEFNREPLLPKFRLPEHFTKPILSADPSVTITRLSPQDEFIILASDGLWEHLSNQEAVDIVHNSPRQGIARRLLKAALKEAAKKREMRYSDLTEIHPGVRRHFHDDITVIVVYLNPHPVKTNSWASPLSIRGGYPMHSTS
METHOD: in vitro pull-down (His-SSPP-bound Ni-NTA beads, anti-GST blot)
ASSAY CONDITIONS: chain shown with the change; 20% pull-down, 10% input loaded; parent: 1.00
ATTRIBUTE MEASURED: ratio to parent
The reply should be a number, written without any unit.

GST-AtSARK-CD, cytoplasmic domain of Arabidopsis thaliana senescence-associated receptor-like kinase AtSARK, wild type, Q8VYT3 T465D (protein) CWYRKKQRRLLILNLNDKQEEGLQGLGNLRSFTFRELHVYTDGFSSKNILGAGGFGNVYRGKLGDGTMVAVKRLKDINGTSGDSQFRMELEMISLAVHKNLLRLIGYCATSGERLLVYPYMPNGSVASKLKSKPALDWNMRKRIAIGAARGLLYLHEQCDPKIIHRDVKAANILLDECFEAVVGDFGLAKLLNHADSHVTTAVRGDVGHIAPEYLSTGQSSEKTDVFGFGILLLELITGLRALEFGKTVSQKGAMLEWVRKLHEEMKVEELLDRELGTNYDKIEVGEMLQVALLCTQYLPAHRPKMSEVVLMLEGDGLAERWAASHNHSHFYHANISFKTISSLSTTSVSRLDAHCNDPTYQMFGSSAFDDDDDHQPLDSFAMELSGPR; 0.88

Which ratio to parent value is on record for GST-AtSARK-CD, cytoplasmic domain of Arabidopsis thaliana senescence-associated receptor-like kinase AtSARK, wild type, Q8VYT3 S304D (protein) CWYRKKQRRLLILNLNDKQEEGLQGLGNLRSFTFRELHVYTDGFDSKNILGAGGFGNVYRGKLGDGTMVAVKRLKDINGTSGDSQFRMELEMISLAVHKNLLRLIGYCATSGERLLVYPYMPNGSVASKLKSKPALDWNMRKRIAIGAARGLLYLHEQCDPKIIHRDVKAANILLDECFEAVVGDFGLAKLLNHADSHVTTAVRGTVGHIAPEYLSTGQSSEKTDVFGFGILLLELITGLRALEFGKTVSQKGAMLEWVRKLHEEMKVEELLDRELGTNYDKIEVGEMLQVALLCTQYLPAHRPKMSEVVLMLEGDGLAERWAASHNHSHFYHANISFKTISSLSTTSVSRLDAHCNDPTYQMFGSSAFDDDDDHQPLDSFAMELSGPR ?
0.95

Which ratio to parent value is on record for GST-AtSARK-CD, cytoplasmic domain of Arabidopsis thaliana senescence-associated receptor-like kinase AtSARK, wild type, Q8VYT3 Y473E (protein) CWYRKKQRRLLILNLNDKQEEGLQGLGNLRSFTFRELHVYTDGFSSKNILGAGGFGNVYRGKLGDGTMVAVKRLKDINGTSGDSQFRMELEMISLAVHKNLLRLIGYCATSGERLLVYPYMPNGSVASKLKSKPALDWNMRKRIAIGAARGLLYLHEQCDPKIIHRDVKAANILLDECFEAVVGDFGLAKLLNHADSHVTTAVRGTVGHIAPEELSTGQSSEKTDVFGFGILLLELITGLRALEFGKTVSQKGAMLEWVRKLHEEMKVEELLDRELGTNYDKIEVGEMLQVALLCTQYLPAHRPKMSEVVLMLEGDGLAERWAASHNHSHFYHANISFKTISSLSTTSVSRLDAHCNDPTYQMFGSSAFDDDDDHQPLDSFAMELSGPR ?
0.98

Which ratio to parent value is on record for GST-AtSARK-CD, cytoplasmic domain of Arabidopsis thaliana senescence-associated receptor-like kinase AtSARK, wild type, Q8VYT3 T326A (protein) CWYRKKQRRLLILNLNDKQEEGLQGLGNLRSFTFRELHVYTDGFSSKNILGAGGFGNVYRGKLGDGAMVAVKRLKDINGTSGDSQFRMELEMISLAVHKNLLRLIGYCATSGERLLVYPYMPNGSVASKLKSKPALDWNMRKRIAIGAARGLLYLHEQCDPKIIHRDVKAANILLDECFEAVVGDFGLAKLLNHADSHVTTAVRGTVGHIAPEYLSTGQSSEKTDVFGFGILLLELITGLRALEFGKTVSQKGAMLEWVRKLHEEMKVEELLDRELGTNYDKIEVGEMLQVALLCTQYLPAHRPKMSEVVLMLEGDGLAERWAASHNHSHFYHANISFKTISSLSTTSVSRLDAHCNDPTYQMFGSSAFDDDDDHQPLDSFAMELSGPR ?
0.97

Which ratio to parent value is on record for GST-AtSARK-CD, cytoplasmic domain of Arabidopsis thaliana senescence-associated receptor-like kinase AtSARK, wild type, Q8VYT3 Y413F (protein) CWYRKKQRRLLILNLNDKQEEGLQGLGNLRSFTFRELHVYTDGFSSKNILGAGGFGNVYRGKLGDGTMVAVKRLKDINGTSGDSQFRMELEMISLAVHKNLLRLIGYCATSGERLLVYPYMPNGSVASKLKSKPALDWNMRKRIAIGAARGLLFLHEQCDPKIIHRDVKAANILLDECFEAVVGDFGLAKLLNHADSHVTTAVRGTVGHIAPEYLSTGQSSEKTDVFGFGILLLELITGLRALEFGKTVSQKGAMLEWVRKLHEEMKVEELLDRELGTNYDKIEVGEMLQVALLCTQYLPAHRPKMSEVVLMLEGDGLAERWAASHNHSHFYHANISFKTISSLSTTSVSRLDAHCNDPTYQMFGSSAFDDDDDHQPLDSFAMELSGPR ?
1.16

Which ratio to parent value is on record for GST-AtSARK-CD, cytoplasmic domain of Arabidopsis thaliana senescence-associated receptor-like kinase AtSARK, wild type, Q8VYT3 T326D (protein) CWYRKKQRRLLILNLNDKQEEGLQGLGNLRSFTFRELHVYTDGFSSKNILGAGGFGNVYRGKLGDGDMVAVKRLKDINGTSGDSQFRMELEMISLAVHKNLLRLIGYCATSGERLLVYPYMPNGSVASKLKSKPALDWNMRKRIAIGAARGLLYLHEQCDPKIIHRDVKAANILLDECFEAVVGDFGLAKLLNHADSHVTTAVRGTVGHIAPEYLSTGQSSEKTDVFGFGILLLELITGLRALEFGKTVSQKGAMLEWVRKLHEEMKVEELLDRELGTNYDKIEVGEMLQVALLCTQYLPAHRPKMSEVVLMLEGDGLAERWAASHNHSHFYHANISFKTISSLSTTSVSRLDAHCNDPTYQMFGSSAFDDDDDHQPLDSFAMELSGPR ?
0.84

Which ratio to parent value is on record for GST-AtSARK-CD, cytoplasmic domain of Arabidopsis thaliana senescence-associated receptor-like kinase AtSARK, wild type, Q8VYT3 Y473F (protein) CWYRKKQRRLLILNLNDKQEEGLQGLGNLRSFTFRELHVYTDGFSSKNILGAGGFGNVYRGKLGDGTMVAVKRLKDINGTSGDSQFRMELEMISLAVHKNLLRLIGYCATSGERLLVYPYMPNGSVASKLKSKPALDWNMRKRIAIGAARGLLYLHEQCDPKIIHRDVKAANILLDECFEAVVGDFGLAKLLNHADSHVTTAVRGTVGHIAPEFLSTGQSSEKTDVFGFGILLLELITGLRALEFGKTVSQKGAMLEWVRKLHEEMKVEELLDRELGTNYDKIEVGEMLQVALLCTQYLPAHRPKMSEVVLMLEGDGLAERWAASHNHSHFYHANISFKTISSLSTTSVSRLDAHCNDPTYQMFGSSAFDDDDDHQPLDSFAMELSGPR ?
0.96
